Entries and their measured growth follow.
Tested on: RXF 393 renal
assay-remarks: NCI-60 one-dose screen, 48 h (100 = growth as untreated, 0 = no growth, -100 = all killed)
protocol-conditions: 10 µM unless noted
This is part of a sample that, as a whole, favours compounds with a hit. Of some 83,000 tested, about 20% had one in any assay.
assay-metric: growth (%)

molecule	numeric-result
CCCCOc1ccc(/C=N/NC(N)=S)cc1	85.7
c1ccc2c(-c3nc(-c4c[nH]c5ccncc45)cs3)c[nH]c2c1	74.9
COc1cccc(OC)c1C(=O)N[C@@H]1C(=O)N2[C@@H]1SC(C)(C)[C@@H]2C(=O)O	125
CCN(CC)c1ccc(C2=NN(C(C)=O)C(c3cc(OC)c(OC)c(OC)c3)C2)cc1 (stereo not drawn)	-44
CCCCCCCCCCCCCCCCCCOc1ccccc1CCCOP(=O)(O)OCC[N+](C)(C)C	11.1
Cc1cc2nc3cc(C)c(N)cc3[n+](-c3ccccc3)c2cc1N	91.7
Cc1ccc2sc3c(NCCN)nc4ccccc4c3c(=O)c2c1	89.8
COc1ccn2c(C(C)=O)cc(C(=O)c3ccc4c(c3)Sc3ccccc3N4)c2c1	51.9
CC(=O)O.CN1[CH-]N(Cc2ccc(C#N)cc2)c2ccccc21.[Ag+]	117
COc1cc(C2CC(c3cccc(Br)c3)=NN2C(C)=O)cc(OC)c1OC (stereo not drawn)	33.3
CCc1cccc2c3c(sc12)C(c1ccc(Cl)cc1)C(C#N)=C(N)O3 (stereo not drawn)	-18.8
Cc1ccc(/C=C(\C#N)n2nc3cccc(F)c3n2)cc1	89.7
CN1C(=O)CNC(=O)[C@H](NC(=O)c2nc3ccccc3cc2O)CSSC[C@H]1C(=O)NCCCc1nc2ccccc2cc1O	102
COC(=O)/C=C1\S/C(=N\Nc2ccc([N+](=O)[O-])cc2[N+](=O)[O-])N(C2CCCCC2)C1=O	62
COC1=C(C)C(=O)c2c(c(CCCl)c3n2CCC3O)C1=O (stereo not drawn)	-53.7
CC(C)C(=O)Nc1ccc(-c2nc(-c3cccc(OCCN4CCOCC4)c3)c(-c3ccnc(Br)c3)[nH]2)cc1	-35.3
CCCCCCN1C(=O)/C(=c2\sc3n(c2=O)C2C(NN=3)N(CC)C(=O)N2CC)c2ccccc21 (stereo not drawn)	25.8
Cc1cc(Cl)ccc1NS(=O)(=O)c1ccc(-c2cnc(C3CC3)o2)cc1	16.2
Cc1ccc2c(-c3cc(-c4ccccc4)nc(N)c3C#N)cc(=O)oc2c1	110
COc1cccc(-c2nn(-c3ccccc3)cc2-c2ccnc(N3CCOCC3)c2)c1	97.8
CCCSc1nc2ccc(C)cc2cc1/C=[N+](\[O-])c1ccccc1	69.4
O=S(=O)(NCCCNc1cc(-c2c(-c3cccc(O)c3)nc3sccn23)ccn1)c1cccc2ccccc12	41.1
O=[N+]([O-])c1ccc(Oc2nc(Nc3ccc(O[C@H]4CO[C@H]5[C@@H]4OC[C@@H]5O)c(Cl)c3)ncc2F)c(Cl)c1	13.6
OC(c1ccccc1)C(NC(Cc1ccccc1)c1ccccc1)c1ccccc1 (stereo not drawn)	102
CC/C=C\C[C@@H]1C/C=C2/C(=O)C=C[C@H]2C/C=C\CCCC(=O)O1	-80.6
CC1=NN(c2ccc(S(=O)(=O)O)cc2)C(=O)C1N=Nc1ccc(-c2ccc(N=Nc3ccc(OS(=O)(=O)c4ccc(C)cc4)cc3)c(S(=O)(=O)O)c2)cc1 (stereo not drawn)	61.7
O=C(Cc1ccc2c(c1)OCCO2)Nc1nc2ccc(F)cc2s1	43
O=c1ccc(N=Nc2ccc([N+](=O)[O-])cc2)ccc1O	46
Cc1oc2nc[nH]c(=O)c2c1C(=O)/C=C/c1ccc(Br)cc1	4.34
NCCCNc1nc2ccccc2c2c(=O)c3cc(OC(F)(F)F)ccc3sc12	60.7
Cc1ccc(-c2nc(SCC(=O)Nc3nc(-c4ccc(Cl)cc4)cs3)[nH]c(=O)c2C#N)cc1	114
COc1ccc2c(c1)nc(NNC(=O)c1cnccn1)c1cccn12	48
COc1ccc(C2CC(c3ccc(Nc4ccnc5cc(Cl)ccc45)cc3)=NN2C=O)cc1 (stereo not drawn)	76.7
